Biological target: iNOS (Homo sapiens, UniProt P35228)
Assay: iNOS enzyme assay (hemoglobin capture assay)
Type: biochemical
Details: at 100 μM; read-out: Percent Inhibition of NOS, iNOS
Structures can show the parent of a compound that is named as a salt.
measured quantity: inhibition at 100 µM
Please report the result as a number followed by the unit.

| compound | measurement target | result |
| --- | --- | --- |
| N=C(Nc1ccc2c(c1)C(=O)Nc1ccccc1N2)c1cccs1 [Example 19, hydrobromide] | iNOS (Homo sapiens, UniProt P35228) | 17% |
| N=C(Nc1ccc2c(c1)C(=O)Nc1ccccc1N2)SCc1ccc2ccccc2c1 [Example 12] | iNOS (Homo sapiens, UniProt P35228) | 28% |
| N=C(Nc1ccc2c(c1)C(=O)Nc1ccccc1N2)SCc1ccccc1 [Example 13] | iNOS (Homo sapiens, UniProt P35228) | 29% |

Q) Query (compound): O=C1Nc2ccccc2Oc2ccc(NC(=S)Nc3ccccc3)cc21 [Example 17] ; field requested: inhibition at 100 µM
A) 24%

Q) Repeat for the following compound: N=C(Nc1ccc2c(c1)C(=O)Nc1ccccc1O2)c1cccs1 [Example 18]
A) 14%
